# Assay Explanation: self-splicing fitness, log relative to wild type (ln ratio); higher = more splicing; Tetrahymena group I intron in knt gene, E. coli kanamycin selection, DiMSum; sequences stand for … in CUCUCU…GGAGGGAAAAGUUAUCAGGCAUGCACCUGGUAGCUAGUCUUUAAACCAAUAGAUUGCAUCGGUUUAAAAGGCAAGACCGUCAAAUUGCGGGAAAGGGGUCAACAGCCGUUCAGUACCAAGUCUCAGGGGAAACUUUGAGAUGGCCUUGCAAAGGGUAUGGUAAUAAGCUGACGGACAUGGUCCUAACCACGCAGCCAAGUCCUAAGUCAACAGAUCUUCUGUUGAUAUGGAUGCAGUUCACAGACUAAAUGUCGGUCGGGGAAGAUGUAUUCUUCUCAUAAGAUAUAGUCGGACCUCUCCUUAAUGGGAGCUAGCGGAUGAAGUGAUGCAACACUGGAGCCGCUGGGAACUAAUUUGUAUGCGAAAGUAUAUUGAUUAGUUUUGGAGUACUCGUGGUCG;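 also: selection with 25 µg/mL kanamycin versus none on LB agar overnight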
# Settings: 37 °C
Output: class label from self-splicing fitness (ln). Mapping: bucket 1: < -2; bucket 2: ≥ -2 and < -0.5; bucket 3: ≥ -0.5

* GAUAAGCAAUAUUACGGUGU | bucket 2
* CUAAAGCAAUAUUACGCAAU | bucket 1
* GCGCAGCAAUAUUACGACUA | bucket 3
* ACAAAGCAAUAUUACGGGCG | bucket 3
* AAAAAGCAAUAUUACGCCAU | bucket 2
* GGAAAGCAAUAUUACGAGAG | bucket 2

Exam item: assign `UAUAAGCAAUAUUACGUCCG` to the correct category. bucket 3

Exam item: assign `ACGAAGCAAUAUUACGUUGU` to the correct category. bucket 2

Exam item: assign `GUUAAGCAAUAUUACGUAGA` to the correct category. bucket 2

Exam item: assign `ACAGAGCAAUAUUACGUCUC` to the correct category. bucket 1

Exam item: assign `CGCUAGCAAUAUUACGUGGG` to the correct category. bucket 1

Exam item: assign `UACAAGCAAUAUUACGGCCU` to the correct category. bucket 2

Exam item: assign `CGGUAGCAAUAUUACGCAUA` to the correct category. bucket 1

Exam item: assign `UAUAAGCAAUAUUACGAUUC` to the correct category. bucket 2

Exam item: assign `GGGAAGCAAUAUUACGCUAU` to the correct category. bucket 2

Exam item: assign `GCCGAGCAAUAUUACGCUGA` to the correct category. bucket 2

----------
# Assay Explanation: self-splicing fitness, log relative to wild type (ln ratio); higher = more splicing; Tetrahymena group I intron in knt gene, E. coli kanamycin selection, DiMSum; sequences stand for … in CUCUCU…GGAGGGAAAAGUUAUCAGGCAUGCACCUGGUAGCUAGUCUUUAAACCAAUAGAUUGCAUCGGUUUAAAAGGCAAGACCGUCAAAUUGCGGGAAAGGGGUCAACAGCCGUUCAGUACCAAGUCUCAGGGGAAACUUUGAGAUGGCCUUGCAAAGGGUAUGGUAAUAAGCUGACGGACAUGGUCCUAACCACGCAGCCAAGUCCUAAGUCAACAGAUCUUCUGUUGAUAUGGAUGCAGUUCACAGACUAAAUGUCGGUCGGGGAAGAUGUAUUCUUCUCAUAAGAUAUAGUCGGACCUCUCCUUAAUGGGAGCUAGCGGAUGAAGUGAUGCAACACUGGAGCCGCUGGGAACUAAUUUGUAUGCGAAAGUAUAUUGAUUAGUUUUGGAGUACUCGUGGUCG
# Settings: 37 °C
Could you label it t if measured self-splicing fitness (ln) is -1 or higher, and f otherwise?

Below, 5 sequences whose answers are already recorded.
- CUUUAGCAAUAUUACGCAUC: f
- UACUAGCAAUAUUACGGUUC: f
- UAGCAGCAAUAUUACGACCC: t
- CGGAAGCAAUAUUACGACGA: t
- GCAGAGCAAUAUUACGAUGC: f

Tell me whether self-splicing fitness (ln) is at least -1 here: `UAGUAGCAAUAUUACGAGUC` f

Tell me whether self-splicing fitness (ln) is at least -1 here: `CGUGAGCAAUAUUACGGUCG` t

Tell me whether self-splicing fitness (ln) is at least -1 here: `AUACAGCAAUAUUACGUUCU` t

Tell me whether self-splicing fitness (ln) is at least -1 here: `UUCGAGCAAUAUUACGGAGG` f

Tell me whether self-splicing fitness (ln) is at least -1 here: `UAUUAGCAAUAUUACGUUAA` f

Tell me whether self-splicing fitness (ln) is at least -1 here: `GGUGAGCAAUAUUACGGCCU` f
